Attribute: EC50
Tested on: A549
Experiment: Cytotoxicity against human A549 cells assessed as cell survival after 96 hrs by sulforhodamine B assay
Type: functional, cell-based
Conditions: A549, 96 h

Known results for molecules:
Cc1cccc(COC(=O)[C@]23CCC(C)(C)C[C@H]2C2=CC[C@@H]4[C@@]5(C)CC[C@H](O)[C@@](C)(CO)[C@@H]5CC[C@@]4(C)[C@]2(C)CC3)c1 :: 13.5 µM
CC1(C)CC[C@]2(C(=O)NCCN3CCCCC3)CC[C@]3(C)C(=CC[C@@H]4[C@@]5(C)CC[C@H](O)[C@@](C)(CO)[C@@H]5CC[C@]43C)[C@@H]2C1 :: 2.7 µM
CC1(C)CC[C@]2(C(=O)O)CC[C@]3(C)C(=CC[C@@H]4[C@@]5(C)CC[C@H](O)[C@@](C)(CO)[C@@H]5CC[C@]43C)[C@@H]2C1 :: 29 µM
COc1cc(COC(=O)[C@]23CCC(C)(C)C[C@H]2C2=CC[C@@H]4[C@@]5(C)CC[C@H](O)[C@@](C)(CO)[C@@H]5CC[C@@]4(C)[C@]2(C)CC3)cc(OC)c1 :: 14 µM
CC1(C)CC[C@]2(C(=O)NCCN3CCOCC3)CC[C@]3(C)C(=CC[C@@H]4[C@@]5(C)CC[C@H](O)[C@@](C)(CO)[C@@H]5CC[C@]43C)[C@@H]2C1 :: > 30 µM
Cc1ccccc1COC(=O)[C@]12CCC(C)(C)C[C@H]1C1=CC[C@@H]3[C@@]4(C)CC[C@H](O)[C@@](C)(CO)[C@@H]4CC[C@@]3(C)[C@]1(C)CC2 :: 12.6 µM
CC1(C)CC[C@]2(C(=O)NCc3ccccc3)CC[C@]3(C)C(=CC[C@@H]4[C@@]5(C)CC[C@H](O)[C@@](C)(CO)[C@@H]5CC[C@]43C)[C@@H]2C1 :: 15.7 µM
CC1(C)CC[C@]2(C(=O)OCc3cccc(Br)c3)CC[C@]3(C)C(=CC[C@@H]4[C@@]5(C)CC[C@H](O)[C@@](C)(CO)[C@@H]5CC[C@]43C)[C@@H]2C1 :: 14.2 µM

// switching to the query molecule
Req: Supply recorded EC50 for CC1(C)CC[C@]2(C(=O)OCc3c(F)cccc3F)CC[C@]3(C)C(=CC[C@@H]4[C@@]5(C)CC[C@H](O)[C@@](C)(CO)[C@@H]5CC[C@]43C)[C@@H]2C1 here.
Resp: 11.7 µM
